Biological target: FAAH (Rattus norvegicus)
Construct: Frozen brains (without cerebellum) from Wistar rats were used; from tissue; host or cells: Wistar rat brain (without cerebellum), washed membrane pellets
Sequence (P97612 1-579): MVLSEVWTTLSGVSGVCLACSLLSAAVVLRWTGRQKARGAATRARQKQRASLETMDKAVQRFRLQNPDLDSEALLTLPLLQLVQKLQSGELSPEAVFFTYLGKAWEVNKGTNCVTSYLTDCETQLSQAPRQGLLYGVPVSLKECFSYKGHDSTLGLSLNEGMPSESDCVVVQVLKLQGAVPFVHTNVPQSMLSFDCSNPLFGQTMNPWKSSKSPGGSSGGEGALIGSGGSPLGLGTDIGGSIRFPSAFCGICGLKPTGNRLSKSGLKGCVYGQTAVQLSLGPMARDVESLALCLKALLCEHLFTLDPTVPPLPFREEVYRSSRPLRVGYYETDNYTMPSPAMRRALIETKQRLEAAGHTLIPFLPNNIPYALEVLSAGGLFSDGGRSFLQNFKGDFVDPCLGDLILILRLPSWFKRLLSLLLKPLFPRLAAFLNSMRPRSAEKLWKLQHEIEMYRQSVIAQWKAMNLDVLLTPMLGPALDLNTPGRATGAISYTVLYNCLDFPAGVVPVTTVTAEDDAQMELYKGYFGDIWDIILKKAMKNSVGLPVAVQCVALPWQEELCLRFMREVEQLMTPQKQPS
Assay: In vitro FAAH activity in rat brain membranes, 3H-AEA substrate, % of control
Type: biochemical, Wistar rats
Conditions: 10 uM test compound, low value = strong inhibitor
Give In Vitro FAAH activity, 10 uM for every item shown.

Problem: Find the recorded In Vitro FAAH activity, 10 uM belonging to `CC1(C)COCN1C(=O)n1nnc2ccccc21` and report it.
Solution: 0.1 % of control

Problem: Would you kindly repeat that for `CN(C(=O)n1ccnc1-c1ccccc1)c1ccccc1` ?
Solution: 92.6 % of control

Problem: Would you kindly repeat that for `CN(C(=O)n1cnc(-c2ccccc2)c1)C1CCCCC1` ?
Solution: 0 % of control
